- METHOD SUMMARY: Half life in rat liver microsomes
- Format: ADME, microsome
RESULT TYPE: half-life (h)

INSERT INTO results (given_smiles, unit_string, obs_value) VALUES
  ('O=C(NCCc1c[nH]c2ccccc12)C1CCN(C(=O)c2ccc(-c3ccccc3)cc2)CC1', 'h', 2.98);

====

Each entry below carries its recorded pKi.
Target sequence: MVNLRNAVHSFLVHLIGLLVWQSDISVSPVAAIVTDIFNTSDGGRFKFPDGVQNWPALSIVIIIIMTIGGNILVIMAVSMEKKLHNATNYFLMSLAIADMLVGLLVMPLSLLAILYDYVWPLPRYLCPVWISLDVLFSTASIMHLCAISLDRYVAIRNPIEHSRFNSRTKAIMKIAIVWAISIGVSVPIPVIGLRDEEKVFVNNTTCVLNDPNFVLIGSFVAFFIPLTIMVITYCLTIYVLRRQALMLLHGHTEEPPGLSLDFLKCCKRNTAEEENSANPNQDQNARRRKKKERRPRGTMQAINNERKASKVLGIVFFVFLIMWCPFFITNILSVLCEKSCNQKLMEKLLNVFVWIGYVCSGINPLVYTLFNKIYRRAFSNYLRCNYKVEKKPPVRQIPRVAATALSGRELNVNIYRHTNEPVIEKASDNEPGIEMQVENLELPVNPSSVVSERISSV
pKi: −log10 of the molar value.
RESULT TYPE: pKi

INSERT INTO assay_data (given_smiles, result_type, obs_value) VALUES
  ('O=C(NCc1ccccc1)C1CCN(C(=O)c2ccc(-c3ccccc3)cc2)CC1', 'pKi', 6.01),
  ('O=C(NCCc1c[nH]c2ccccc12)C1CCN(C(=O)c2ccc(-c3ccccc3)cc2)CC1', 'pKi', 6.33),
  ('O=C(NCCc1c[nH]c2ccccc12)C1CCN(C(=O)c2ccccc2)CC1', 'pKi', 6.13);

====

Target protein (sequence): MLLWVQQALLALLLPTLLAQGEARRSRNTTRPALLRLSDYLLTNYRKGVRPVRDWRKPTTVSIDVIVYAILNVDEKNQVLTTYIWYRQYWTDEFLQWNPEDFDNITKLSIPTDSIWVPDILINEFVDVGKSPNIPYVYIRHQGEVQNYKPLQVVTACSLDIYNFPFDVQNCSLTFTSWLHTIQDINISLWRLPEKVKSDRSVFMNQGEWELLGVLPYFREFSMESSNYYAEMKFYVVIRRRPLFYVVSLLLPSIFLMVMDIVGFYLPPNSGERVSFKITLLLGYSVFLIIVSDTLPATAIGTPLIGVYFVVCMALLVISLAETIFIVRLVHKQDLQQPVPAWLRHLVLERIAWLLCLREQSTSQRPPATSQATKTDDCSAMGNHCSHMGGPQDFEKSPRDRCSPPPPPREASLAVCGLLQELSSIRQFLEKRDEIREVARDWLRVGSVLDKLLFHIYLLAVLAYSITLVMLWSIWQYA
pKi: −log10 of the molar value.
RESULT TYPE: pKi

INSERT INTO assay_data (given_smiles, obs_value) VALUES
  ('O=C(NCCc1c[nH]c2ccccc12)C1CCN(C(=O)c2ccc(-c3ccccc3)cc2)CC1', '< 5.00');

====

- METHOD SUMMARY: Half life of compound in fasted state simulated intestinal fluid at pH 6.5
- Assay type: ADME
RESULT TYPE: half-life

INSERT INTO measurements (given_smiles, obs_value) VALUES
  ('O=C(NCCc1c[nH]c2ccccc12)C1CCN(C(=O)c2ccc(-c3ccccc3)cc2)CC1', '> 8.33 h');
